target: PTPμ (Homo sapiens); experiment: biochemical
Sequence (P28827 21-1452): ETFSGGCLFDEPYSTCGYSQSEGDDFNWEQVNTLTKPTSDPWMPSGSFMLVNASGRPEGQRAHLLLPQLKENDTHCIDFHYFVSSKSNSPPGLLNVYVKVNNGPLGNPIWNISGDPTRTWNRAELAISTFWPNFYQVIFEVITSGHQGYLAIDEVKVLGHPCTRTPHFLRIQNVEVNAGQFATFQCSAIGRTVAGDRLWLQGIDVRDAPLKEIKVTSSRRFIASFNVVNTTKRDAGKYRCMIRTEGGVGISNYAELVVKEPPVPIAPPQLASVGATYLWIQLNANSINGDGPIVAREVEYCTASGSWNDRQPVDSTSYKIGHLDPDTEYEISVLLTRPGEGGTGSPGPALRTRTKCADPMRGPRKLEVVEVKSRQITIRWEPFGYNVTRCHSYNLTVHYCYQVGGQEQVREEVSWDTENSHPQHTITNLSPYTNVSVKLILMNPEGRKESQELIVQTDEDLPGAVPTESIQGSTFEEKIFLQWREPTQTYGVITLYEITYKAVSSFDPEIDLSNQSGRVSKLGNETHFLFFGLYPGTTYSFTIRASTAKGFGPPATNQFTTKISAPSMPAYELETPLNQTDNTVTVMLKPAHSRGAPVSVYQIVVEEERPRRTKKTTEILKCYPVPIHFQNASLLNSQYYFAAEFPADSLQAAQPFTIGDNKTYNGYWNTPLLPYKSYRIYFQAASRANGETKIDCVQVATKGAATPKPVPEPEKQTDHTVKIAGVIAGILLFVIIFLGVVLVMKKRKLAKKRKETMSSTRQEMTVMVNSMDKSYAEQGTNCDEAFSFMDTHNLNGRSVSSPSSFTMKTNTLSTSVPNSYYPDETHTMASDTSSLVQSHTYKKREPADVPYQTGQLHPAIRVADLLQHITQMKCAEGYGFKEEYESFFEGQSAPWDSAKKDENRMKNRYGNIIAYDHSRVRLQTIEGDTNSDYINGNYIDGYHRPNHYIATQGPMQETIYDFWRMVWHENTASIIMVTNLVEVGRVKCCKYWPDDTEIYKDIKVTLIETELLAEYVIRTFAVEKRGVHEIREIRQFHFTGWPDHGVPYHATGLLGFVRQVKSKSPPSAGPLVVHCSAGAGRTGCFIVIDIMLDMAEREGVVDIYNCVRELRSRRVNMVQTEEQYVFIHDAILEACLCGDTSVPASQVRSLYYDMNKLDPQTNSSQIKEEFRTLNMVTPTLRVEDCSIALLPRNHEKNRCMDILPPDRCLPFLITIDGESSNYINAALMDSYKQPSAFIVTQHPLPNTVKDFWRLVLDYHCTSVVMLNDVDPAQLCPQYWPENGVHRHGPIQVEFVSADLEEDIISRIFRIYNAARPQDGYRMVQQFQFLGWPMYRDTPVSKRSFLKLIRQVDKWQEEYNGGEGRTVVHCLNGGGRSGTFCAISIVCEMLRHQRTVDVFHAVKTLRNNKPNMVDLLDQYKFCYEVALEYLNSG
pIC50: −log10 of the molar value.
Quick list: pIC50 per entry.

Known results for molecules:
O=C(Nc1ccc(I)cc1)C(=O)Nc1ccc(NC(=O)C(c2ccccc2)S(=O)(=O)O)cc1 (centres unmarked)
< 5.00
O=C(Nc1ccc(NC(=O)C(c2ccccc2)S(=O)(=O)O)cc1)C(=O)Nc1ccc(-c2cccs2)cc1 (centres unmarked)
< 5.00
O=C(Nc1ccc(NC(=O)C(c2ccccc2)S(=O)(=O)O)cc1)C(=O)Nc1cc(-c2ccc(Br)cc2)n[nH]1 (centres unmarked)
< 5.00
NC(=O)c1cc[n+](CC2=C(C(=O)O)N3C(=O)[C@@H](NC(=O)[C@@H](c4ccccc4)S(=O)(=O)[O-])[C@H]3SC2)cc1 [Cefsulodin, reference compound]
< 3.70

Let's switch to this molecule now.
Query: Look up and report pIC50, with PTPμ (Homo sapiens) as system, for O=C(Nc1ccc(NC(=O)C(c2ccccc2)S(=O)(=O)O)cc1)C(=O)Nc1ccc(-c2ccccc2)cc1 (centres unmarked)
Result: < 5.00

The reported numbers originate from patent US10494332B2.
